Origin of measurements: patent US7446079B2

Overview of reported GC Abundance across a group of molecules:
# Assay Protocol: GC-MS headspace release profile of Tropical Fruit perfume in shampoo, 1/100 dilution in water
# Type: physicochemical
# Applied Conditions: headspace at 30 seconds
// response body must contain only the number

The following molecules have reported results that may help.
CC(=O)OC1CCC(C(C)(C)C)CC1 (stereo not drawn) [VERTENEX HC]
2000
CCCC(=O)OCC [ETHYL BUTYRATE]
2800

## Task Tell me the measured GC Abundance of CC(=O)OC(C)(C)Cc1ccccc1 [DIMETHYL BENZYL CARBINYL ACETATE] , please.
## Result 2000

## Task Suppose we examine the molecule CC(=O)OC(C)(C)C1CC=C(C)CC1 (stereo not drawn) [TERPINYL ACETATE] ; what GC Abundance value has been reported?
## Result 1000

## Task Value lookup for GC Abundance; key = C=CCOC(=O)CCCCCC [ALLYL HEPTOATE]
## Result 10000
